Would you mind telling me the reported IC50 of each entry?
target: Nonstructural protein 3 (Zika virus, UniProt A0A024AXB9); test: Functional biochemical assay to identify treatments for viral infectious disease that targets Zika NS2B-NS3 protease. Utilizing a direct enzyme activity measurement method, reading the fluorescence intensity is used to characterize the relative potency of inhibitors as IC50.; design: species or system PRVABC59
Sequence (A0A024AXB9 whole entry): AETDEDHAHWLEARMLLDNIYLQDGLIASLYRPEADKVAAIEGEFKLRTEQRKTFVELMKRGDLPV

What the record says about `Cn1ncnc1Sc1nc(C2CCCC2)ns1` : IC50 is > 99.5 µM

What the record says about `CC(C)Oc1ccc(S(=O)(=O)Nc2ccc(Cl)cc2C(=O)O)cc1` : IC50 is > 99.5 µM

What the record says about `N#Cc1cccc(-c2nc3c(C(=O)Nc4cccc(F)c4)cc(Cl)cc3[nH]2)c1` : IC50 is > 25 µM

What the record says about `OCC#C[C@H](Nc1ccc(-c2nnn[nH]2)cc1)c1cc(Cl)cc(C2CC2)c1` : IC50 is > 99.5 µM

What the record says about `O=C1Cc2c(cccc2C(=O)N[C@H]2CCC[C@@H](C(=O)NC3CC3)C2)N1` : IC50 is > 25 µM

What the record says about `C[C@](C#N)(Nc1ccc2c(c1)CNC2)c1cccc(Cl)c1` : IC50 is > 25 µM
